Assignment: determine reported pIC50 for the given compounds.
# Measurement notes: Inhibition of Escherichia coli heptosyltransferase Waac
On this scale, pIC50 is minus log10 of a concentration expressed in M (mol/L).

Lookup: Need pIC50, item CC1=NN(c2cccc(C(=O)O)c2)C(=O)/C1=C\c1ccc(-c2ccc(C(=O)O)c(C)c2)o1
Found: 4.51

Lookup: Check CC1=NN(c2ccc(C(=O)O)cc2)C(=O)/C1=C\c1ccc(-c2cccc(C(N)=O)c2)o1 (mixture of isomers) too.
Found: 4.74

Lookup: Input CC1=NN(c2ccc(C(=O)O)cc2)C(=O)/C1=C\c1ccc(-c2ccccc2)o1
Found: 4.26

Lookup: Also, COC(=O)c1cccc(-c2ccc(/C=C3\C(=O)N(c4cccc(C(=O)O)c4)N=C3C)o2)c1 (mixture of isomers) please.
Found: 4.31

Lookup: Same question for CC1=NN(c2cccc(C(=O)O)c2)C(=O)/C1=C\c1ccc(-c2cccc(C(=O)O)c2)o1 (mixture of isomers) please.
Found: 5.70

* * *

# Measurement notes: Inhibition of Escherichia coli heptosyltransferase Waac
Measured attribute: log10 of IC50 (log10 of the value in µM)
// stored as log10 of IC50 expressed in µM

Lookup: What value of log10 of IC50 has been recorded for this entry: CC1=NN(c2cccc(C(=O)O)c2)C(=O)/C1=C\c1ccc(-c2ccc(Cl)c(C(=O)O)c2)o1 (mixture of isomers)
Found: 0.00

Lookup: Ok, now CC(=O)c1cccc(-c2ccc(/C=C3\C(=O)N(c4cccc(C(=O)O)c4)N=C3C)o2)c1 (mixture of isomers)
Found: 1.18

Lookup: Next: CC1=NN(c2ccc(C(=O)O)cc2)C(=O)/C1=C\c1ccc(-c2ccc(Cl)c(C(=O)O)c2)o1
Found: 0.49

Lookup: Next record, please: CC1=NN(c2ccc(C(=O)O)cc2)C(=O)/C1=C\c1ccc(-c2ccc(C(=O)O)cc2)o1 (mixture of isomers)
Found: 1.71

Lookup: Input CC1=NN(c2cccc(C(=O)O)c2)C(=O)/C1=C\c1ccc(-c2ccc(C(=O)O)cc2)o1
Found: 0.48

These measurements were taken from ChEMBL document CHEMBL1155053.
